For each entry below, report its pEC50 value.
Test System: human mGluR3 (hmGluR3) (Homo sapiens, UniProt Q14832)
Sequence (Q14832 23-879): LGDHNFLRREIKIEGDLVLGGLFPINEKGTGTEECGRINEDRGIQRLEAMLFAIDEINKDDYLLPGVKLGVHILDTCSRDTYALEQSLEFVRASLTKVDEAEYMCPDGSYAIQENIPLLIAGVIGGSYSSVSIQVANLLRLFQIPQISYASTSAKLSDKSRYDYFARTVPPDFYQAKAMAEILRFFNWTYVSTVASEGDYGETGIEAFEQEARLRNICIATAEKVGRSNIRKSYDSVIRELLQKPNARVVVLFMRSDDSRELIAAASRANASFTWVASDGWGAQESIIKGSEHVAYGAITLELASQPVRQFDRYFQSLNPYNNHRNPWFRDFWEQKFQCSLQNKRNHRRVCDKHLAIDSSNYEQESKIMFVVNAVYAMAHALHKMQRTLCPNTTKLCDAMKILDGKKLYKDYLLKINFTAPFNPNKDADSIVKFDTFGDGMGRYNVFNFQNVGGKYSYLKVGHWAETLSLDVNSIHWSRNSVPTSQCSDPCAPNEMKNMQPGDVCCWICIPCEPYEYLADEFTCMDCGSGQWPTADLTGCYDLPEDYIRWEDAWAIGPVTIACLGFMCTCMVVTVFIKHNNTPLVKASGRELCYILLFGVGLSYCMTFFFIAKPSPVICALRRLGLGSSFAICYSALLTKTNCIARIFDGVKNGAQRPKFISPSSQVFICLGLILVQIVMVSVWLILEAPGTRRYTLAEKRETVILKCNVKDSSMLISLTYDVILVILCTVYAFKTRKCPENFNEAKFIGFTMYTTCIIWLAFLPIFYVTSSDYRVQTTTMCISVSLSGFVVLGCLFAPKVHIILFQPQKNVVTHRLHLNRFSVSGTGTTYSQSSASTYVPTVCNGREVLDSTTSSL
Measurement Protocol: Human mGluR3 positive allosteric modulator evaluation using Ca++ functional assay
Study Conditions: hmGluR3 transiently over-expressed in HEK-293 cells; cells stimulated by an EC50 glutamate concentration; intracellular Ca2+ (Fluo4AM, FLIPR Tetra)
pEC50: −log10 of the molar value. Counter-ions that a name gives are not always drawn.

Examples with answers:
- Compound: "Cc1ccc2c(n1)C(=O)N(C)Cc1ccc(-c3ccc(F)nc3)cc1-2"
  Test System: "human mGluR3 (hmGluR3) (Homo sapiens, UniProt Q14832)"
  Readout Value: "6.00 to 7.00"
- Compound: "Cc1ncccc1-c1ccc2c(c1)-c1cn(C)nc1C(=O)N(C)C2"
  Test System: "human mGluR3 (hmGluR3) (Homo sapiens, UniProt Q14832)"
  Readout Value: "5.00 to 6.00"
- Compound: "Cc1ncccc1-c1ccc2c(c1)-c1ccc(Cl)cc1C(=O)N(C)C21CC1"
  Test System: "human mGluR3 (hmGluR3) (Homo sapiens, UniProt Q14832)"
  Readout Value: "5.00 to 6.00"
- Compound: "Cc1ncccc1-c1ccc2c(c1)-c1cc(F)cnc1C(=O)N(C)C2"
  Test System: "human mGluR3 (hmGluR3) (Homo sapiens, UniProt Q14832)"
  Readout Value: "5.00 to 6.00"

Batch: pEC50 for all items listed.
1. CN1Cc2ccc(-c3ccc(F)nc3)cc2-c2cccnc2C1=O
2. Cc1ncccc1-c1ccc2c(c1)-c1ccc(F)nc1C(=O)N(C)C2
3. CN1Cc2ncc(-c3cccc(C#N)c3)cc2-n2cccc2C1=O
4. Cc1ncccc1-c1ccc2c(c1)-c1ccc(-c3ccnn3C)cc1C(=O)N(C)C21CC1

6.00 to 7.00
5.00 to 6.00
< 5.00
6.00 to 7.00

Give pEC50 only, for Cc1ncccc1-c1ccc2c(c1)-c1ccccc1C(=O)N(C)C21CC1 [Example 21, hydrochloride] , using human mGluR3 (hmGluR3) (Homo sapiens, UniProt Q14832) data.
6.00 to 7.00

* * *

For each entry below, report its melting point value.
Counter-ions that a name gives are not always drawn.

Examples with answers:
- Molecule: "COCn1cc2c(n1)C(=O)N(C)C1(CC1)c1ccc(-c3ccc(F)nc3)cc1-2"
  Metric: "melting point"
  Readout Value: "198 to 200 °C"
- Molecule: "Cc1ncccc1-c1cnc2c(c1)-n1cccc1C(=O)N(C)C2 (as salt: hydrochloride) [Example 6, dihydrochloride]"
  Metric: "melting point"
  Readout Value: "> 250 °C"
- Molecule: "Cc1ncccc1-c1cnc2c(n1)-n1cccc1C(=O)N(C)C2 (as salt: hydrochloride) [Example 7, dihydrochloride]"
  Metric: "melting point"
  Readout Value: "> 250 °C"
- Molecule: "Cc1ncccc1-c1cc2c(nn1)CN(C)C(=O)c1cccn1-2 (as salt: hydrochloride) [Example 8, dihydrochloride]"
  Metric: "melting point"
  Readout Value: "> 250 °C"

Batch: melting point for all items listed.
1. COCn1cc2c(n1)C(=O)N(C)C1(CC1)c1ccc(-c3ccc(F)cn3)cc1-2
2. Cc1ncccc1-c1ccc2c(c1)-c1ccccc1C(=O)N(C)C21CC1 (as salt: hydrochloride)

1. 219 to 223 °C
2. > 250 °C

* * *

Test System: UniProt Q14832
Measurement Protocol: Human mGluR3 positive allosteric modulator evaluation using Ca++ functional assay
Study Conditions: hmGluR3 transiently over-expressed in HEK-293 cells; cells stimulated by an EC50 glutamate concentration; intracellular Ca2+ (Fluo4AM, FLIPR Tetra)
For each entry below, report its EC50 value.

Examples with answers:
- Smiles Code: "CN1Cc2ccc(-c3ccc(F)cn3)cc2-c2cccnc2C1=O"
  EC50: "100 to 1000 nM"
- Smiles Code: "COc1ccc2c(n1)C(=O)N(C)Cc1ccc(-c3ccc(F)cn3)cc1-2"
  EC50: "100 to 1000 nM"
- Smiles Code: "Cc1ccc2c(n1)C(=O)N(C)Cc1ccc(-c3cccnc3C)cc1-2"
  EC50: "100 to 1000 nM"
- Smiles Code: "COc1cnc2c(c1)-c1cc(-c3cccnc3C)ccc1CN(C)C2=O"
  EC50: "100 to 1000 nM"
- Smiles Code: "CN1Cc2ncc(-c3ccc4nccn4c3)cc2-n2cccc2C1=O"
  EC50: "> 10000 nM"
- Smiles Code: "CN1Cc2ccc(-c3ccc(F)cn3)cc2-c2ccc(F)nc2C1=O"
  EC50: "1000 to 10000 nM"
- Smiles Code: "Cc1ncccc1-c1cc2c(cn1)C1(CC1)N(C)C(=O)c1cccn1-2"
  EC50: "1000 to 10000 nM"
- Smiles Code: "COc1ccc2c(n1)C(=O)N(C)C1(CC1)c1ccc(Cl)cc1-2"
  EC50: "100 to 1000 nM"

For the compound COCn1cc2c(n1)C(=O)N(C)Cc1ccc(-c3cccnc3C)cc1-2 , report EC50.
100 to 1000 nM
